This collection of values is drawn from patent US4871745A.

- TARGET_ENTITY: calcium channel (nitrendipine binding) (Oryctolagus cuniculus, UniProt P15381)
- Construct: the heart was immediately removed, cleaned and chopped into small pieces
- Sequence (P15381 whole entry, other chains not shown): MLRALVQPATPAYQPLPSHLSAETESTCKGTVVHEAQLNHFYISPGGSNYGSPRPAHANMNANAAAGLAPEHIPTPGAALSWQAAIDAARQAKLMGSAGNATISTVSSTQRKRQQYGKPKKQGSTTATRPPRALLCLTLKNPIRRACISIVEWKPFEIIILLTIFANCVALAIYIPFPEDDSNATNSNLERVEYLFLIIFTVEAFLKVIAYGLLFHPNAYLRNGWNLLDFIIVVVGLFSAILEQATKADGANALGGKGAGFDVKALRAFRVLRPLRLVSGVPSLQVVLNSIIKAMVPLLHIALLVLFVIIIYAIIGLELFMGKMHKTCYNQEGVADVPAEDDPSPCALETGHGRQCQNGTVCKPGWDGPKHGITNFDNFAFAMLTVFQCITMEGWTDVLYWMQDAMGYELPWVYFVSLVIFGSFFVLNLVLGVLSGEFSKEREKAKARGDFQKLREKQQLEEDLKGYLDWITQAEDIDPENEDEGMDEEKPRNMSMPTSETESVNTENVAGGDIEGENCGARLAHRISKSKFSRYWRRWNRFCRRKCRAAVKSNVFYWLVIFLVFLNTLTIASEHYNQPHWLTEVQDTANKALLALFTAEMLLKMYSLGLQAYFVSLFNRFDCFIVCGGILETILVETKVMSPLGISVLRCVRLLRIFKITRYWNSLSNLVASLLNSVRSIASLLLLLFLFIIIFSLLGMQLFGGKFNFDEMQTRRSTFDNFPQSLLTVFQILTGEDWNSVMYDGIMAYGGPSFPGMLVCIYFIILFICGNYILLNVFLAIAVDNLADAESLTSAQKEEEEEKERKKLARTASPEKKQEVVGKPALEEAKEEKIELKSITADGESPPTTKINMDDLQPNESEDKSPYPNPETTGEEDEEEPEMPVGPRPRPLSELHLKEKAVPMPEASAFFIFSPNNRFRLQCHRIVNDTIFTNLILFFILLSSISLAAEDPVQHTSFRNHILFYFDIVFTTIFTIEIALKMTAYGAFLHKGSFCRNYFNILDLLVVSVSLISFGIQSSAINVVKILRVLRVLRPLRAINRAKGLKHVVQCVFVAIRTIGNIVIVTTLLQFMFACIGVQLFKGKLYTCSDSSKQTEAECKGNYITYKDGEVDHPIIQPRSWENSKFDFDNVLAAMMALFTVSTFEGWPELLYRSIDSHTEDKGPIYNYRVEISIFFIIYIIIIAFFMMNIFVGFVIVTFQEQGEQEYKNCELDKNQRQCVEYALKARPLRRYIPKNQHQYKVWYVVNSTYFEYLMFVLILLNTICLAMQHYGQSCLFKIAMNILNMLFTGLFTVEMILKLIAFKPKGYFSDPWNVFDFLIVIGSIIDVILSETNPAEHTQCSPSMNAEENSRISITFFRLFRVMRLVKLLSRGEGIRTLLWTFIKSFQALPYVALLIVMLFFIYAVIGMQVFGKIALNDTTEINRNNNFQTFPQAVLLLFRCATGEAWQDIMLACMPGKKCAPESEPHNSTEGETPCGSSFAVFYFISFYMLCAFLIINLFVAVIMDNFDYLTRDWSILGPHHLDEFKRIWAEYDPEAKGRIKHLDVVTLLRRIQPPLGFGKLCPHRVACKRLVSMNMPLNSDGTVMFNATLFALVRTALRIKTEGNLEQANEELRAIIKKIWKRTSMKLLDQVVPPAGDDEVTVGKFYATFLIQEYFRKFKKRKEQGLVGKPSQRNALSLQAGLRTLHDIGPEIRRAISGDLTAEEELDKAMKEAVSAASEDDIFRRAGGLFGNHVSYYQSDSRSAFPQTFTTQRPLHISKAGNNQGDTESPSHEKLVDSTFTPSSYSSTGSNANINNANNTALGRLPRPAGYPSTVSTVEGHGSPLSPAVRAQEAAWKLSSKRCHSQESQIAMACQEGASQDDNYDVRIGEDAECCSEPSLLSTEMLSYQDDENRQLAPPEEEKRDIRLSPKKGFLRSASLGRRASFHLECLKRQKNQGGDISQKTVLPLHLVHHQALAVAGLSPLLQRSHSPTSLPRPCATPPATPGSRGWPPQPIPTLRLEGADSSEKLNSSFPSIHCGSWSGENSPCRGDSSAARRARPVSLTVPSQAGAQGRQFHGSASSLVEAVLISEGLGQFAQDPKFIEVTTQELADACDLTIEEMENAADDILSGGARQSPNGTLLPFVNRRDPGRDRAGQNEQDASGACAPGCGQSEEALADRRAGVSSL
- Sequence (P13806 27-960 partner limits assumed, other chains not shown): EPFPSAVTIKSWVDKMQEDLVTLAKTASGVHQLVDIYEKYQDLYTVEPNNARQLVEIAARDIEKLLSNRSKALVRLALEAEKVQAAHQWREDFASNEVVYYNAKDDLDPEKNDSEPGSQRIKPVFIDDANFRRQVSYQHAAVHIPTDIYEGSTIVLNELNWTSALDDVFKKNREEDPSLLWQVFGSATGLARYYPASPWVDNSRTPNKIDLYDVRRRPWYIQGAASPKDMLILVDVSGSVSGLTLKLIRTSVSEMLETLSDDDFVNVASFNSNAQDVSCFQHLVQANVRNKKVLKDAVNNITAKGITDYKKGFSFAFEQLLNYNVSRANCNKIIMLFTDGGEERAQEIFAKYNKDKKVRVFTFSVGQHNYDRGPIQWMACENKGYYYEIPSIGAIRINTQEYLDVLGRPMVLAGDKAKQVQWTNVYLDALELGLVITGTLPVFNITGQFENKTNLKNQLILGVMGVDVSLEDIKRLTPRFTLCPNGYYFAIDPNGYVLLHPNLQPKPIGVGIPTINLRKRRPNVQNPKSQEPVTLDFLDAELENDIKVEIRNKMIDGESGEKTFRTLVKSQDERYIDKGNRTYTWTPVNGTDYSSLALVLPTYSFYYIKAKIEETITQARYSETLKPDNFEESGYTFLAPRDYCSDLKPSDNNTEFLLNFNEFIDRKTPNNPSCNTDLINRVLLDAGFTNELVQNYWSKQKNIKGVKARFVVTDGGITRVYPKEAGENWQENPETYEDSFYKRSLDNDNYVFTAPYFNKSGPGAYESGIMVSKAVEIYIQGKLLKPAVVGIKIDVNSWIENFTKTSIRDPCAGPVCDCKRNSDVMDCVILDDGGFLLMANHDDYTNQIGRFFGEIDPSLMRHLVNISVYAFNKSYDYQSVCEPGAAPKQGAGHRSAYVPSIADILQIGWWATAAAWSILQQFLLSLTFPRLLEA
- Sequence (P13806 961-1106 partner limits assumed, other chains not shown): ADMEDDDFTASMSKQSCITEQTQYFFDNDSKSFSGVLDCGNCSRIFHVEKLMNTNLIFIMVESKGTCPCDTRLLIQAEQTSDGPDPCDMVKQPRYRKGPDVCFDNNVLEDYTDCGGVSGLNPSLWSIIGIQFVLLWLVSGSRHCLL
- METHOD_SUMMARY: Inhibition of 3H-nitrendipine binding (heart membranes), calcium channel blocking activity
- CONDITION_LABEL: 3H-nitrendipine 0.05-0.50 nM; rabbit heart membranes; 90 min at 4° C.; pH 7.4; read-out: B: IC50 (inhibition of nitrendipine binding)
- Method: The calcium channel blocking activity of the above compounds was determined by measuring (A) the inhibition of calcium dependent smooth muscle contraction and (B) inhibition of nitrendipine binding as follows. (B) The inhibition of nitrendipine binding was determined by following the procedures of Bolger et al., Biochem. Biophys. Res. Comm. 104, 1604 (1982) and Ehlert et al., Life Sciences 30, 2191 (1982). […] After rinsing, the filters were dried and counted in a liquid scintillation counter. […]
Kindly note that classification relies on IC50 with these boundaries: Low: < 0.6 µM; Mid: ≥ 0.6 µM and < 2 µM; High: ≥ 2 µM

compound="CCCCN(CCCC)CCCOc1ccc(C(=O)c2cnc3c(C)cccn23)cc1 [Example 13]" target_entity="calcium channel (nitrendipine binding) (Oryctolagus cuniculus, UniProt P15381)" category_label=Low
compound="CCCCN(CCCC)CCCOc1ccc(C(=O)c2cn3ccc(C)cc3n2)cc1 [Example 10]" target_entity="calcium channel (nitrendipine binding) (Oryctolagus cuniculus, UniProt P15381)" category_label=Mid
compound="CCCCN(CCCC)CCCOc1ccc(C(=O)c2cn3cc(Br)ccc3n2)cc1 [Example 12]" target_entity="calcium channel (nitrendipine binding) (Oryctolagus cuniculus, UniProt P15381)" category_label=High
compound="CCCCN(CCCC)CCCOc1ccc(C(=O)c2cnc3ccc(Br)cn23)cc1 [Example 14]" target_entity="calcium channel (nitrendipine binding) (Oryctolagus cuniculus, UniProt P15381)" category_label=Low
compound="CCCCN(CCCC)CCCOc1ccc(-c2cn3cccc(OCc4ccccc4)c3n2)cc1 [Example 6]" target_entity="calcium channel (nitrendipine binding) (Oryctolagus cuniculus, UniProt P15381)" category_label=High
compound="CCCCN(CCCC)CCCOc1ccc(-c2cn3ccc(C)cc3n2)cc1 [Example 4]" target_entity="calcium channel (nitrendipine binding) (Oryctolagus cuniculus, UniProt P15381)" category_label=High
compound="CCCCN(CCCC)CCCOc1ccc(-c2nc3c(C)cccn3c2C)cc1 [Example 7]" target_entity="calcium channel (nitrendipine binding) (Oryctolagus cuniculus, UniProt P15381)" category_label=Mid
compound="CCCCN(CCCC)CCCOc1ccc(-c2cn3ccccc3n2)cc1 [Example 1]" target_entity="calcium channel (nitrendipine binding) (Oryctolagus cuniculus, UniProt P15381)" category_label=High
compound="CCCCN(CCCC)CCCOc1ccc(C(=O)c2cn3c(C)cc(C)cc3n2)cc1 [Example 9]" target_entity="calcium channel (nitrendipine binding) (Oryctolagus cuniculus, UniProt P15381)" category_label=High
compound="CCCCN(CCCC)CCCOc1ccc(-c2cn3cc(Br)ccc3n2)cc1 [Example 3]" target_entity="calcium channel (nitrendipine binding) (Oryctolagus cuniculus, UniProt P15381)" category_label=High
compound="CCCCN(CCCC)CCCOc1ccc(C(=O)c2cn3cccc(OCc4ccccc4)c3n2)cc1 [Example 11]" target_entity="calcium channel (nitrendipine binding) (Oryctolagus cuniculus, UniProt P15381)" category_label=High
